src = PubChem BioAssay AID248

Field: T/C. Provide a value for each of the molecules that follow.
- Tested on: L1210 leukemia ip in BDF1 mice, survival T/C
- Assay Summary: NCI In Vivo Anticancer Drug Screen. Data for tumor model L1210 Leukemia (intraperitoneal) in B6D2F1 (BDF1) mice
- Reported Conditions: endpoint: mean survival time; dose: 100.0 mg/kg/injection; schedule: Q01DX001 (ip); vehicle: saline with Tween-80; higher = longer survival
Inconclusive results and toxic doses are left out.

CCOC(=O)CC1C(=O)CCCC1=O = 98 % of control
COc1c(C)c(C)c(OC(C)=O)c(C)c1COC(C)=O = 98 % of control
O=[N+]([O-])c1ccc(OCc2ccc(COc3ccc(S(=O)(=O)F)cc3)cc2)c(Cl)c1 = 90 % of control

Okay, next one:
Dear colleague, I am looking for the recorded T/C of the following molecule: CCCCN(CCCC)C(=O)N(CCCC)CCCC
107 % of control

====

- Test system: L1210 leukemia ip in BDF1 mice, survival T/C
- Assay Summary: NCI In Vivo Anticancer Drug Screen. Data for tumor model L1210 Leukemia (intraperitoneal) in B6D2F1 (BDF1) mice
- Reported Conditions: endpoint: mean survival time; dose: 300.0 mg/kg/injection; schedule: Q01DX001 (ip); vehicle: saline; higher = longer survival
Inconclusive results and toxic doses are left out.
I'd appreciate it if you could supply T/C values for the items below.

CC(=O)C(Br)CC(C)C (stereo not drawn) = 100 % of control
CC(=O)Nc1ccc(S(=O)(=O)Cl)cc1Cl = 99 % of control

I have this molecule here, CCOC(=O)c1cc(C(=O)OCC)c(C)nc1C , and I need its recorded T/C.
100 % of control

====

Task for the reader: assign each of the following molecules its reported T/C.
- System: L1210 leukemia ip in BDF1 mice, survival T/C
- Assay Summary: NCI In Vivo Anticancer Drug Screen. Data for tumor model L1210 Leukemia (intraperitoneal) in B6D2F1 (BDF1) mice
- Reported Conditions: endpoint: mean survival time; dose: 200.0 mg/kg/injection; schedule: Q01DX001 (ip); vehicle: carboxymethylcellulose (CMC); higher = longer survival
Toxic doses and inconclusive results are not listed.

O=S1(=O)OCc2ccccc21 = 100 % of control
OCC1OC(n2cnc3c(NO)ncnc32)CC1O (stereo not drawn) = 109 % of control

For the next question, use this molecule.
Item Fc1cc(N(CCCl)CCCl)ccc1C=NCCCN=Cc1ccc(N(CCCl)CCCl)cc1F has what recorded T/C?
95 % of control

====

- System: L1210 leukemia ip in BDF1 mice, survival T/C
- Assay Summary: NCI In Vivo Anticancer Drug Screen. Data for tumor model L1210 Leukemia (intraperitoneal) in B6D2F1 (BDF1) mice
- Reported Conditions: endpoint: mean survival time; dose: 200.0 mg/kg/injection; schedule: Q04DX003 (ip); vehicle: Klucel (hydroxypropylcellulose) (HPC); higher = longer survival
Toxic doses and inconclusive results are not listed.
Observation Type: T/C

In the examples that follow, each entry is paired with its recorded T/C.
CCC(C)(O)C#CC#CC(C)(O)CC (stereo not drawn) = 106 % of control
CCOC(=O)c1cnc(SC)nc1N/N=C/c1ccccc1 = 101 % of control

Please examine the following record next.
Value lookup for T/C; key = O=C(O)CC1CCCCC1c1ccccc1 (stereo not drawn)
106 % of control

====

- Test system: L1210 leukemia ip in BDF1 mice, survival T/C
- Assay Summary: NCI In Vivo Anticancer Drug Screen. Data for tumor model L1210 Leukemia (intraperitoneal) in B6D2F1 (BDF1) mice
- Reported Conditions: endpoint: mean survival time; dose: 400.0 mg/kg/injection; schedule: Q01DX009 (ip); vehicle: Klucel (hydroxypropylcellulose) (HPC); higher = longer survival
Toxic doses and inconclusive results are not listed.
Observation Type: T/C

Worked examples, 2 compounds total:
CC(C)(O)c1cnc(OCc2ccccc2)nc1OCc1ccccc1 = 103 % of control
c1ccc(C/C(N=Nc2ccccc2)=N\Nc2ccccc2)cc1 = 105 % of control

Answer for every listed entry: what is its T/C? The entries follow.
1. CCN(c1ccccc1)c1ccc(C=O)cc1
2. CC(=O)Nc1c(Cl)cc(I)cc1Cl
3. CCc1cc2c(cc1/C(C)=N/N=C(\C)c1cc3c(cc1CC)C(C)(C)CCC3(C)C)C(C)(C)CCC2(C)C
4. Cc1cc(=O)n2c3c(cc(C#N)cc13)OC2
5. CC1=CC(=O)C(C(O)(C(F)(F)Cl)C(F)(F)Cl)C(C)(C)C1 (stereo unspecified)
6. Cc1nc(N)[nH]c(=O)c1CCCCC#N
7. CN(CCC#N)c1ccc(C=C(C#N)C#N)cc1
8. COc1ccc(/C=C2\N=C(c3ccco3)OC2=O)cc1Br

1: 93 % of control; 2: 97 % of control; 3: 93 % of control; 4: 95 % of control; 5: 97 % of control; 6: 117 % of control; 7: 97 % of control; 8: 91 % of control

Batch request: T/C for each of the following compounds.
1. CN(C)c1ccc(N=Nc2cccc([N+](=O)[O-])c2)cc1
2. O=C1NC(=O)C(c2ccc(Cl)cc2)(c2ccc(Cl)cc2)N1
3. COc1cccc(/C=C/c2nccc3ccccc23)c1OC

["100 % of control", "113 % of control", "91 % of control"]

// each compound listed below needs its T/C
1. COc1ccccc1/C=c1\[nH]c(=O)/c(=C/c2ccccc2OC)[nH]c1=O
2. Cc1cc([N+](=O)[O-])c(N)c([N+](=O)[O-])c1
3. CCCCCCCCCCCCSC(=O)Nc1ccc([N+](=O)[O-])cc1Cl
4. Cc1ccc(CSCc2ccc(C)cc2)cc1
5. Cc1ccc(NC(=O)c2ccccc2Cl)cc1Cl
6. O=C(Nc1ccccc1Cl)OC/C=C/c1ccccc1
7. COc1ccc(Cl)cc1NS(=O)(=O)c1cccc([N+](=O)[O-])c1

1. 86 % of control
2. 97 % of control
3. 102 % of control
4. 92 % of control
5. 98 % of control
6. 108 % of control
7. 91 % of control

Would you mind giving T/C for every compound in the list below?
1. COC(=O)c1ccccc1NC(=O)Nc1cc(Cl)ccc1OC
2. NC(=O)CNC(=O)OCc1ccccc1
3. O=C(O)c1c(Br)c(Br)c(Br)c(Br)c1C(=O)Nc1cccc2c(O)cccc12
4. Cc1ccc([N+](=O)[O-])cc1NC(=O)Nc1ccc(C(=O)O)cc1
5. O=C1OCCN1C(=O)c1ccc([N+](=O)[O-])cc1
6. OCC(F)(F)C(F)(F)C(F)(F)C(F)F

1: 107 % of control; 2: 107 % of control; 3: 96 % of control; 4: 104 % of control; 5: 88 % of control; 6: 103 % of control
